# System: SNU-5
# protocol description: Antiproliferative activity against human SNU5 cells after 72 hrs by CCK8 assay
# Assay type: functional, cell-based
# experimental parameters: SNU-5, 72 h
assay readout: IC50 (nM)

1) Cc1ccc(C2=Nc3c(n[nH]c3C)Nc3nc(N4CCOCC4)ncc32)cc1 ... 1270
2) COc1cccc2c1C(=O)c1c(O)c3c(c(O)c1C2=O)C[C@@](O)(C(=O)CO)C[C@@H]3O[C@H]1C[C@H](N)[C@H](O)[C@H](C)O1 ... 237

* * *

# Test system: MKN-45
# protocol description: Antiproliferative activity against human MKN45 cells after 72 hrs by sulforhodamine B assay
# Format: functional, cell-based
# experimental parameters: MKN-45, 72 h
pIC50: −log10 of the molar value.
assay readout: pIC50

1) Cc1ccc(C2=Nc3c(n[nH]c3C)Nc3nc(N4CCOCC4)ncc32)cc1 ... 5.90
2) COc1cccc2c1C(=O)c1c(O)c3c(c(O)c1C2=O)C[C@@](O)(C(=O)CO)C[C@@H]3O[C@H]1C[C@H](N)[C@H](O)[C@H](C)O1 [DOXORUBICIN] ... 6.90

* * *

# protocol description: Tmax in ICR mouse at 25 mg/kg, po administered as single dose by LC-MS analysis
# Type: ADME, organism-based
# experimental parameters: in vivo
assay readout: Tmax (min)

1) Cc1ccc(C2=Nc3c(n[nH]c3C)Nc3nc(N4CCOCC4)ncc32)cc1 ... 30

* * *

# protocol description: Terminal elimination half life in ICR mouse at 25 mg/kg, po administered as single dose by LC-MS analysis
# Assay type: ADME, organism-based
# experimental parameters: in vivo, read-out: beta t1/2 (converted)
assay readout: half-life (h)

1) Cc1ccc(C2=Nc3c(n[nH]c3C)Nc3nc(N4CCOCC4)ncc32)cc1 ... 3.27

* * *

# protocol description: Oral bioavailability in ICR mouse at 25 mg/kg administered as single dose by LC-MS analysis
# Type: ADME, organism-based
# experimental parameters: in vivo
assay readout: bioavailability

1. Cc1ccc(C2=Nc3c(n[nH]c3C)Nc3nc(N4CCOCC4)ncc32)cc1 ... 63.8%

* * *

# protocol description: Volume of distribution at steady state in ICR mouse at 5 mg/kg, iv administered as single dose by LC-MS analysis
# Assay type: ADME, organism-based
# experimental parameters: in vivo, read-out: Vdss
assay readout: Vd (L/kg)

1. Cc1ccc(C2=Nc3c(n[nH]c3C)Nc3nc(N4CCOCC4)ncc32)cc1 ... 2.01

* * *

Form field: IC50 (one value per entry).
# tgt: Aurora kinase A (Homo sapiens, UniProt O14965)
# Sequence (O14965 whole entry): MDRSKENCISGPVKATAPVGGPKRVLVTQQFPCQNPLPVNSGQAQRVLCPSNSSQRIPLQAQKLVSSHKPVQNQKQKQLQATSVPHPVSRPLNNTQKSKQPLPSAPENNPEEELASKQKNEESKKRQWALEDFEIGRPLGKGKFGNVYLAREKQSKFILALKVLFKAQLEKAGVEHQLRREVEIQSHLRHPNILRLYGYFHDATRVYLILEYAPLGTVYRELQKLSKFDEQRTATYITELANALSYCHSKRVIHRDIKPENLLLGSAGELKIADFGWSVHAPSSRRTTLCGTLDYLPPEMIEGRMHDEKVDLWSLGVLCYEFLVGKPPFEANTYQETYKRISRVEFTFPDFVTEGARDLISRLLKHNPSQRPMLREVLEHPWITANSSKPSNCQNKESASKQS
assay readout: IC50 (nM)

1. CSc1ncc2c(n1)Nc1n[nH]c(C)c1N=C2c1ccc(Cl)cc1 ... 183
2. COc1ccccc1C1=Nc2c(n[nH]c2C)Nc2nc(SC)ncc21 ... 191
3. Cc1ccc(C2=Nc3c(n[nH]c3C)Nc3nc(NC(C)(C)C)ncc32)cc1 ... 357
4. CSc1ncc2c(n1)Nc1n[nH]c(C)c1N=C2c1ccccc1C ... 75

* * *

# tgt: UniProt O14965
# Sequence (O14965 whole entry): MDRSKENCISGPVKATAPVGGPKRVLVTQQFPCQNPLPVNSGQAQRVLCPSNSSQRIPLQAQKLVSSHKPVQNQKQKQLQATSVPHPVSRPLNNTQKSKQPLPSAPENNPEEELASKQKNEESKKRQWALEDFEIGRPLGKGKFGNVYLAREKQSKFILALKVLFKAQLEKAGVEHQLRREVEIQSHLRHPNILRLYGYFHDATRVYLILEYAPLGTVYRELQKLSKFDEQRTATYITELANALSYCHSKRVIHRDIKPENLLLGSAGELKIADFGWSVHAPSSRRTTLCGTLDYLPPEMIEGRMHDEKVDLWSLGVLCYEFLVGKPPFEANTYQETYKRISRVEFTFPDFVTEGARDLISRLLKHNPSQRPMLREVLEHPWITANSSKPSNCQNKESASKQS
pIC50: −log10 of the molar value.
Decide by pIC50: equal to or exceeding 7 means criterion met, less means criterion not met.

1. CNc1ncc2c(n1)Nc1n[nH]c(C)c1N=C2c1ccc(C)cc1 ... criterion not met
2. Cc1ccc(C2=Nc3c(n[nH]c3C)Nc3nc(N4CCOCC4)ncc32)cc1 ... criterion met

* * *

# tgt: Aurora kinase B (Homo sapiens)
# Sequence (Q96GD4 whole entry): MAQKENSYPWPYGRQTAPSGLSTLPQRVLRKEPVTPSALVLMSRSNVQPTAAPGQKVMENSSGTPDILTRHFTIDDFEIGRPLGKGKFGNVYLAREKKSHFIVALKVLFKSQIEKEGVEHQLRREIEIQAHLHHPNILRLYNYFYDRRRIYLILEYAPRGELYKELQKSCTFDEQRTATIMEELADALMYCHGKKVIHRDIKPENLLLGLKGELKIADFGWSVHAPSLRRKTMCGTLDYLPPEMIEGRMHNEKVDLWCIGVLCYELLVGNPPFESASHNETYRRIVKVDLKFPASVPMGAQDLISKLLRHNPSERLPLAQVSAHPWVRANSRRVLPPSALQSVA
assay readout: IC50 (µM)

1. Cc1ccc(C2=Nc3c(n[nH]c3C)Nc3nc(N4CCOCC4)ncc32)cc1 ... 0.0376
2. CSc1ncc2c(n1)Nc1n[nH]c(C)c1N=C2c1cccc(F)c1 ... 0.611
3. COc1ccccc1C1=Nc2c(n[nH]c2C)Nc2nc(SC)ncc21 ... 2.32
4. Cc1ccc(C2=Nc3c(n[nH]c3C)Nc3nc(NC(C)C)ncc32)cc1 ... 0.0541
5. CSc1ncc2c(n1)Nc1n[nH]c(C)c1N=C2c1ccc(C)cc1 ... 0.0998
6. Cc1ccc(C2=Nc3c(n[nH]c3C)Nc3nc(NC(C)(C)C)ncc32)cc1 ... 1.18
7. CSc1ncc2c(n1)Nc1n[nH]c(C)c1N=C2c1ccc(C(F)(F)F)cc1 ... 0.854
8. CNc1ncc2c(n1)Nc1n[nH]c(C)c1N=C2c1ccc(C)cc1 ... 0.352
9. CSc1ncc2c(n1)Nc1n[nH]c(C)c1N=C2c1ccccc1Cl ... 0.278

* * *

# protocol description: Terminal elimination half life in ICR mouse at 5 mg/kg, iv administered as single dose by LC-MS analysis
# Format: ADME, organism-based
# experimental parameters: in vivo, read-out: beta t1/2 (converted)
assay readout: half-life (h)

1. Cc1ccc(C2=Nc3c(n[nH]c3C)Nc3nc(N4CCOCC4)ncc32)cc1 ... 1.53

* * *

Target or system Aurora kinase A (Homo sapiens); recorded quantity pIC50.
pIC50: −log10 of the molar value.
assay readout: pIC50

1) CSc1ncc2c(n1)Nc1n[nH]c(C)c1N=C2c1ccccc1C(F)(F)F ... 6.89
2) COc1ccc(C2=Nc3c(n[nH]c3C)Nc3nc(SC)ncc32)cc1 ... 7.03
3) CSc1ncc2c(n1)Nc1n[nH]c(C)c1N=C2c1ccccc1Cl ... 7.03
4) Cc1ccc(C2=Nc3c(n[nH]c3C)Nc3nc(N4CCCCC4)ncc32)cc1 ... 7.11
